Biological target: APOBEC3A D131A (Homo sapiens, UniProt P31941 SEQ:1-199, D131A)
Sequence (P31941 whole entry D131A): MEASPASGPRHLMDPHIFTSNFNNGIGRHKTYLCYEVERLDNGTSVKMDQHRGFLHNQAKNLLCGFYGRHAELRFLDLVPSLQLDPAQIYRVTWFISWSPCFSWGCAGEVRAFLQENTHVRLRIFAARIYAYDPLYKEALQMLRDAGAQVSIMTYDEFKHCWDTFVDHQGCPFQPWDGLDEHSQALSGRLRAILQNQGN
Test: deamination, 50 nM enzyme, 1 h 37 C
Conditions: tags: myc-His, 293T; label: 3'-fluorescein
Text: FIGS. 10A-10C provide corroborating biochemical data for human A3A. FIGS. 10A and 10B show DNA cytosine deamination by human A3A (WT, wild-type) and the indicated mutant derivatives (S, substrate; P, product). […] FIG. 10C is a series of graphs quantifying product accumulation in dose response experiments for A3A and the indicated D131 derivatives using the same ssDNA substrates as FIG. 10B. […]
Quantity kind: activity (% product)
Quick note: give the figure in % product, leave out the unit.

# annotated cases, reported activity shown
| Binder | Result unit | activity |
| --- | --- | --- |
| ATTATTATTATTCAAATGGATTTATTTATTTATTTATTTATTT (ssDNA) [-1 TCA substrate] | % product | 3.7 |
| ATTATTATTATCCAAATGGATTTATTTATTTATTTATTTATTT (ssDNA) [-1 CCA substrate] | % product | 10.1 |
| ATTATTATTATACAAATGGATTTATTTATTTATTTATTTATTT (ssDNA) [-1 ACA substrate] | % product | 8.7 |

Pending binder:
Return value of activity for input ATTATTATTATGCAAATGGATTTATTTATTTATTTATTTATTT (ssDNA) [-1 GCA substrate] , no commentary.
4
